Just for reference, paper PMC10726465 is where these values come from.

- measuredOn: androgen receptor (AR) (Homo sapiens)
- particulars: from VCaP GRE2-luciferase IC50 and cLogP
endpointLabel: Lipophilic Ligand Efficiency (LLE)
Keep it simple and answer with nothing but the number.

Lookup: Give the reported Lipophilic Ligand Efficiency (LLE) for CSc1ccc(C(N)=O)cc1-c1ccc[nH]1 [Compound 11] (system: androgen receptor (AR) (Homo sapiens)).
Found: 5.8

Lookup: Give the reported Lipophilic Ligand Efficiency (LLE) for Cn1ncc2cc(-c3cc(C(N)=O)cnc3SCc3ccccc3)ccc21 [Compound 35] (system: androgen receptor (AR) (Homo sapiens)).
Found: 4.7

Lookup: Could you share what Lipophilic Ligand Efficiency (LLE) was measured for CSc1ccc(C(N)=O)cc1-c1c(C)noc1C [Compound 10] , tested on androgen receptor (AR) (Homo sapiens)?
Found: 6.2

Lookup: API: value(readout=Lipophilic Ligand Efficiency (LLE), system=androgen receptor (AR) (Homo sapiens)) for record Cn1ncc2cc(-c3cc(C(N)=O)ccc3C(F)(F)F)ccc21 [Compound 45]
Found: 5.4

Lookup: # returns recorded Lipophilic Ligand Efficiency (LLE) (system: androgen receptor (AR) (Homo sapiens)) for CSc1ccc(C(N)=O)cc1-c1ccc2[nH]ncc2c1 [Compound 12]
Found: 6.6

Lookup: Request - read-out Lipophilic Ligand Efficiency (LLE) | tested on androgen receptor (AR) (Homo sapiens) | compound Cn1ncc2cc(-c3cc(C(N)=O)ccc3OCC3CC3)ccc21 [Compound 50]
Found: 5.1

Lookup: Identify the measured Lipophilic Ligand Efficiency (LLE) of CSc1ccc(C(N)=O)cc1-c1cccs1 [Compound 9] for androgen receptor (AR) (Homo sapiens).
Found: 6.3

* * *

- assayNotes: Plasma protein binding
- Type: in vitro ADME
- particulars: mouse
endpointLabel: fraction unbound
API doc: respond with a numeric literal and nothing else, no unit.

Lookup: Requested field: fraction unbound. Item: CSc1ccc(C(N)=O)cc1-c1ccc2c(cnn2C)c1 [Compound 16]
Found: 0.069

* * *

- assayNotes: in vitro
- Assay type: in vitro ADME
- particulars: human, Caco-2; read-out: Caco2 efflux ratio
endpointLabel: efflux ratio
Simply state the number, no unit and no words.

Lookup: // efflux ratio lookup, key: CSc1ccc(C(N)=O)cc1-c1ccc2c(cnn2C)c1
Found: 1.2

* * *

- measuredOn: androgen receptor (AR) (Homo sapiens)
- Sequence (P10275 1-920): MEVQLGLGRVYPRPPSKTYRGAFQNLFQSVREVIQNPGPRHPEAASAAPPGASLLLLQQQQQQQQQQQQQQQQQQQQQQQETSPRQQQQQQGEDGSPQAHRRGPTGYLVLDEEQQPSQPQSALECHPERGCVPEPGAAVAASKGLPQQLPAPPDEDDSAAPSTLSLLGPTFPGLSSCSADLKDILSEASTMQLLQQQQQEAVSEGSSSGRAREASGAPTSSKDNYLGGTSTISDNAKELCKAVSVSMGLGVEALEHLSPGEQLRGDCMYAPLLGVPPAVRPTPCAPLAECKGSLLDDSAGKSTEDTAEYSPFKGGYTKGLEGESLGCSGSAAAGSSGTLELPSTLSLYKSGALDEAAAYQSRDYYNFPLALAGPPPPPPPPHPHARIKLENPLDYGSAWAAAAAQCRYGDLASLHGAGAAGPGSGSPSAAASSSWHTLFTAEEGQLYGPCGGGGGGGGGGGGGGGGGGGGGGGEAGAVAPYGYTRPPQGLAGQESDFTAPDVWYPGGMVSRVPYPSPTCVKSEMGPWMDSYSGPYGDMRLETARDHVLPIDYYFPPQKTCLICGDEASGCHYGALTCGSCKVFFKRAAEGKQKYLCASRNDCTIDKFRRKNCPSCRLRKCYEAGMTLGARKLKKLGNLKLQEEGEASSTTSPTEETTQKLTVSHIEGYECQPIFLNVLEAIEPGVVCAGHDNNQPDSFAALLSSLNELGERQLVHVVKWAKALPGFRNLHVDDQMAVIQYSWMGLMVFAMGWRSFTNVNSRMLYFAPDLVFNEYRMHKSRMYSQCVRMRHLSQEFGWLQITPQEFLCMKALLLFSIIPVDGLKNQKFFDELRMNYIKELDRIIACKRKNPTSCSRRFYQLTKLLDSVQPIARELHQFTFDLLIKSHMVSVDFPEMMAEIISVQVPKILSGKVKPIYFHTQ
- particulars: from VCaP GRE2-luciferase IC50
endpointLabel: Ligand Efficiency (LE)
Number, no unit, nothing else.

Lookup: Requested field: Ligand Efficiency (LE). Item: COc1ccc(-c2cc(C(N)=O)ccc2SC)cc1F
Found: 0.63

Lookup: Recorded Ligand Efficiency (LE) for Cn1ncc2cc(-c3cc(C(N)=O)ccc3OC(F)(F)F)ccc21 , please?
Found: 0.43

Lookup: Given the compound Cn1ncc2cc(-c3cncc(C(N)=O)c3)ccc21 , what is its reported Ligand Efficiency (LE)?
Found: 0.54

Lookup: Param item = CSc1ncc(C(N)=O)cc1-c1ccc2c(cnn2C)c1 ; retrieve measured Ligand Efficiency (LE).
Found: 0.49

Lookup: Sample CSc1ccc(C(N)=O)cc1-c1ccno1 — what was its Ligand Efficiency (LE)?
Found: 0.70

Lookup: Consider the compound shown here: CSc1ccc(C(N)=O)cc1-c1ccncc1 What is its recorded Ligand Efficiency (LE)?
Found: 0.61

Lookup: Name the recorded Ligand Efficiency (LE) for Cn1ncc2cc(-c3cc(C(N)=O)ccc3N3CCOCC3)ccc21 .
Found: 0.41

Lookup: Can you share its Ligand Efficiency (LE)? I mean this compound: CSc1ccc(C(N)=O)cc1-c1ccc2nccn2c1
Found: 0.52

Lookup: Returns the measured Ligand Efficiency (LE) for the input compound. Input: CSc1ccc(C(N)=O)cc1-c1cccnc1
Found: 0.61

Lookup: # get_value(readout='Ligand Efficiency (LE)', item= Cn1ncc2cc(-c3cc(C(N)=O)ccc3OCC3CC3)ccc21 )
Found: 0.43

Lookup: Look at this compound and give its reported Ligand Efficiency (LE). Cn1ncc2cc(-c3cc(C(N)=O)ccc3O)ccc21
Found: 0.52

Lookup: Name the reported Ligand Efficiency (LE) value associated with the compound Cn1ncc2cc(-c3cc(C(N)=O)ccc3NCc3ccccc3)ccc21
Found: 0.46

Lookup: # input compound: CSc1ccc(C(N)=O)cc1-c1ccc2[nH]ncc2c1 ; wanted: its Ligand Efficiency (LE)
Found: 0.59

Lookup: Value lookup for Ligand Efficiency (LE); key = COc1ccc(C(N)=O)cc1-c1ccc2c(cnn2C)c1
Found: 0.49

Lookup: // lookup Ligand Efficiency (LE) for CSc1ccc(C(N)=O)cc1-c1cccs1
Found: 0.79

Lookup: Which Ligand Efficiency (LE) value belongs to CSc1cc(C(N)=O)cc(-c2ccc3c(cnn3C)c2)c1 ?
Found: 0.49

Lookup: Item under review: Cn1ncc2cc(-c3cc(C(N)=O)ccc3NCCN3CCOCC3)ccc21 . Reported Ligand Efficiency (LE)?
Found: 0.37

Lookup: I am curious: what Ligand Efficiency (LE) value has been reported for Cn1ncc2cc(-c3cc(C(N)=O)ccc3SCc3ccccc3)ccc21 ?
Found: 0.44

Lookup: I have this compound here, Cn1ncc2cc(-c3cc(C(N)=O)ccc3NCCCN3CCOCC3)ccc21 , and I need its recorded Ligand Efficiency (LE).
Found: 0.43

Lookup: Can you look up the measured Ligand Efficiency (LE) of CSc1ccc(C(N)=O)cc1-c1ccc2[nH]cnc2c1 for me?
Found: 0.62

Lookup: Find the recorded Ligand Efficiency (LE) belonging to Cn1ncc2cc(-c3cc(C(N)=O)ccc3OCc3ccccc3)ccc21 and report it.
Found: 0.38

* * *

For each entry below, report its pIC50 value.
- measuredOn: androgen receptor (AR) (Homo sapiens, UniProt P10275)
- particulars: read-out: VCaP GRE2-luciferase IC50; VCaP cells, 1 nM DHT, 24 h, 0–30 µM compound
By convention, pIC50 is the negative base-10 log of a molar concentration.

Lookup: Item CSc1ccc(C(N)=O)cc1-c1ccc2cn[nH]c2c1 [Compound 14] has what recorded pIC50?
Found: 5.66

Lookup: Quick one: pIC50 for CSc1ccc(C(=O)O)cc1-c1cncnc1 [Compound 58] ?
Found: 6.92

Lookup: Any idea what pIC50 was measured for CSc1c(F)cc(C(N)=O)cc1-c1ccc2c(cnn2C)c1 [Compound 38] ?
Found: 6.62

Lookup: Endpoint output: pIC50 of CSc1ccc(C(N)=O)cc1-c1ccc2[nH]cnc2c1 [Compound 15] . Value?
Found: 6.04

* * *

- measuredOn: CYP 2D6 (Homo sapiens, UniProt P10635)
- Sequence (P10635 whole entry): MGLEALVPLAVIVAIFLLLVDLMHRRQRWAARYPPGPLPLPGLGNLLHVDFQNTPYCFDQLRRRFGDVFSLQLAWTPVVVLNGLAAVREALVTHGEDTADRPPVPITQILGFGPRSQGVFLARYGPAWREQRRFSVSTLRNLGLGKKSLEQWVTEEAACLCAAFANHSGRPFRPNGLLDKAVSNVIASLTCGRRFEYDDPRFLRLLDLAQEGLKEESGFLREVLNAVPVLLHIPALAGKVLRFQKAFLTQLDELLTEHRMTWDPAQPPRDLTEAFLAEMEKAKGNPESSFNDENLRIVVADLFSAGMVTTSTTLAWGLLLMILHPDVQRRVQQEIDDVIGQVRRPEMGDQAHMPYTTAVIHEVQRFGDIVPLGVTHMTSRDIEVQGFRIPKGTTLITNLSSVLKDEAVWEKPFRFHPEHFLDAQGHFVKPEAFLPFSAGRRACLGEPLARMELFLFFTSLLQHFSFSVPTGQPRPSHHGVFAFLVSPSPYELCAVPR
- assayNotes: CYP450 inhibition (2D6)
- Format: in vitro ADME
endpointLabel: IC50

Lookup: Item CSc1ccc(C(N)=O)cc1-c1ccc2c(cnn2C)c1 has what recorded IC50?
Found: > 25 µM

* * *

- measuredOn: androgen receptor (AR) (Homo sapiens, UniProt P10275)
- Sequence (P10275 1-920): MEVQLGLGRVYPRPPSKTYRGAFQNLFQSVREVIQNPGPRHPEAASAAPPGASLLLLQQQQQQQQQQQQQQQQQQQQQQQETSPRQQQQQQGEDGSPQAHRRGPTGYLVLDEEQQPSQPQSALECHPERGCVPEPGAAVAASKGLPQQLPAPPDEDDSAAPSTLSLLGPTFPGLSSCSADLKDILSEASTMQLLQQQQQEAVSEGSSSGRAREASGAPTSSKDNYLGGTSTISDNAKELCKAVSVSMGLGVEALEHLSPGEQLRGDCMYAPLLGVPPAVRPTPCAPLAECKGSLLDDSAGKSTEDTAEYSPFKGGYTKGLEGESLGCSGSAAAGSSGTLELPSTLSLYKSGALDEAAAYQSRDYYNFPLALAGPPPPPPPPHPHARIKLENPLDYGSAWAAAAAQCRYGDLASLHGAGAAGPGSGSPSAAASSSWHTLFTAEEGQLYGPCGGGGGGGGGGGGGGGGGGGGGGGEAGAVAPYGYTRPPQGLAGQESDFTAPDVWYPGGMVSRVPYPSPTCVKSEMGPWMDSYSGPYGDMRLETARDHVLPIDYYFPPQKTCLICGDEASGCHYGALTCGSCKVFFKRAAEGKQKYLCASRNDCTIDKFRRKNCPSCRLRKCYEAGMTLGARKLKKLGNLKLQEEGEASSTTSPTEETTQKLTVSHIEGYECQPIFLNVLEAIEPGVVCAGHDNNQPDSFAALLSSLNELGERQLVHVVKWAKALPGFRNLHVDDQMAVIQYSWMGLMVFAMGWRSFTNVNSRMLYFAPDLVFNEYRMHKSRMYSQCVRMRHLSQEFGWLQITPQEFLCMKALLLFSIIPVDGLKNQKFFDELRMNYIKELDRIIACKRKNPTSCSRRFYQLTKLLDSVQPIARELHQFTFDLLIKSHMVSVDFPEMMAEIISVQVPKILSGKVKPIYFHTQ
- particulars: read-out: VCaP GRE2-luciferase IC50; VCaP cells, 1 nM DHT, 24 h, 0–30 µM compound
Task for the reader: assign each of the following compounds its reported log10(IC50).
# log10 transformed; quantity=IC50; unit=nM

Lookup: Look at this compound and give its reported log10(IC50). Cn1ncc2cc(-c3cc(C(N)=O)ccc3NCCCN3CCOCC3)ccc21 [Compound 56]
Found: 2.90

Lookup: Field request: log10(IC50) | item: CSc1ccc(C(N)=O)cc1-c1cncnc1 [Compound 24]
Found: 2.43

Lookup: Which log10(IC50) is listed for CSc1ccc(C(N)=O)cc1-c1cccs1 [Compound 9] ?
Found: 2.78

Lookup: If you can, please state the reported log10(IC50) value of Cn1ncc2cc(-c3cc(C(N)=O)ccc3SCc3ccccc3)ccc21 [Compound 40] .
Found: 3.34

Lookup: Record request: log10(IC50) value, item COc1ccc(-c2cc(C(N)=O)ccc2SC)cc1F [Compound 29]
Found: 2.88

Lookup: For the compound CSc1ccc(C(N)=O)cc1-c1ccc(F)c(O)c1 [Compound 33] , what log10(IC50) is on record?
Found: 2.08
